# System: RSV
# measurementNotes: Respiratory syncytial virus plaque reduction assay (Hep2 cells)
# Assay type: cell-based
# Method: All necessary dilutions of peptides were performed in clean, sterile 96-well TC plate. A total of eleven dilutions for each peptide and one control well containing no peptide were assembled. […] The RSV was prepared at a concentration of 100PFU/well in 100 μl 3% EMEM, as determined by a known titer of RSV. […] The cells were checked to ensure that syncytia were present in the control wells. […] Using a dissecting microscope, the number of syncytia in each well was counted.
quantityMeasured: ability to inhibit RSV infection (plaque formation of HEp2 cells)

- substance: "Ac-WQEWDEYDASISQVNEKINQALAYIREADELWAWF-NH2 [T1301]"
  result: "inhibit RSV infection"
- substance: "Ac-WQAWDEYDASISQVNEKINQALAYIREADELWAWF-NH2 [T1302]"
  result: "inhibit RSV infection"
- substance: "Ac-WQAWDEYDASISDVNEKINQALAYIREADELWEWF-NH2 [T1303, RSV hybrid polypeptide]"
  result: "inhibit RSV infection"
